assaySystem: human delta receptor (Homo sapiens, UniProt P41143)
Construct: 6110549
Sequence (P41143 whole entry): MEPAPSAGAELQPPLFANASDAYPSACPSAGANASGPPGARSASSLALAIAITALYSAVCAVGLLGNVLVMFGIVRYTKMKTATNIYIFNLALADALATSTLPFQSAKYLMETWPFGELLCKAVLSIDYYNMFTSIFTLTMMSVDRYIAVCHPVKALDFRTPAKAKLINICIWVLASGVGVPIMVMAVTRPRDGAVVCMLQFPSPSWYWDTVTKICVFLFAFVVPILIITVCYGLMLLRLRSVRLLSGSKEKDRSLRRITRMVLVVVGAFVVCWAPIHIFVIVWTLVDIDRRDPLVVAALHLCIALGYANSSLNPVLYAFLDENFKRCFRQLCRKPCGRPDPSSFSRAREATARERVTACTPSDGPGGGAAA
assayProcedure: radioligand binding, human delta receptor, HEK-293 cell membranes
details: cell not marked (rat), species not given, read-out: δ
outcomeMeasure: Ki (nM)
Express your answer in nM, writing the number without its unit.

compound: C[C@@H]1CN(C(c2cccc(O)c2)c2cccc(C(=O)N3CCCN(CC(=O)O)CC3)c2)[C@@H](C)CN1CC1CC1 (stereo partly drawn)
Ki / nM: 6.8

**Query** For the compound shown here, C=CCN1C[C@H](C)N([C@@H](c2cccc(O)c2)c2cccc(C(=O)N3CCN(Cc4ccc(C(=O)OC)cc4)CC3)c2)C[C@H]1C [Example 91] , give the reported Ki.
**Result** 2.7

**Query** For the compound shown here, C[C@@H]1CN(C(c2cccc(O)c2)c2cccc(C(=O)N3CCCN(CCCCCC(=O)O)CC3)c2)[C@@H](C)CN1Cc1ccccc1 (stereo partly drawn) , give the reported Ki.
**Result** 2.8

**Query** For the compound shown here, C[C@@H]1CN([C@@H](c2cccc(O)c2)c2cccc(C(=O)N3CCC(C(=O)O)CC3)c2)[C@@H](C)CN1CC1CC1 [Example 127] , give the reported Ki.
**Result** 4.35

**Query** For the compound shown here, C[C@@H]1CN([C@@H](c2cccc(O)c2)c2cccc(C(=O)N3CCN(CCCCCC(=O)O)CC3)c2)[C@@H](C)CN1Cc1ccccc1 [Example 97] , give the reported Ki.
**Result** 1.2

**Query** For the compound shown here, C=CCN1C[C@H](C)N([C@@H](c2cccc(O)c2)c2cccc(C(=O)N3CCC(NCc4ccc(C(=O)O)cc4)CC3)c2)C[C@H]1C [Example 140] , give the reported Ki.
**Result** 1.2

###

Tested on: seizure-like convulsions in mice
assayProcedure: mouse seizure-like convulsions
Type: in vivo
details: 10 mg/kg IV
Parameter: Seiz.. Scope: all listed entries.
Express your answer in % 10 mg/kg IV, writing the number without its unit.

Worked examples follow.
moleculeSmiles: C=CCN1C[C@H](C)N([C@@H](c2cccc(O)c2)c2cccc(C(=O)N(C)CC(=O)O)c2)C[C@H]1C
assaySystem: seizure-like convulsions in mice
measuredValue: 0
--
moleculeSmiles: C=CCN1C[C@H](C)N([C@@H](c2cccc(O)c2)c2cccc(C(=O)N3CCN(CCC(=O)OCC)CC3)c2)C[C@H]1C
assaySystem: seizure-like convulsions in mice
measuredValue: 20
--
moleculeSmiles: C[C@@H]1CN([C@@H](c2cccc(O)c2)c2cccc(C(=O)N3CCN(CCCC(=O)O)CC3)c2)[C@@H](C)CN1Cc1cccc(F)c1
assaySystem: seizure-like convulsions in mice
measuredValue: 0
--
moleculeSmiles: CCOC(=O)CCN1CCCN(C(=O)c2cccc([C@H](c3cccc(O)c3)N3C[C@@H](C)N(CC4CC4)C[C@@H]3C)c2)CC1
assaySystem: seizure-like convulsions in mice
measuredValue: 0

**Query** For the compound shown here, "C=CCN1C[C@H](C)N([C@@H](c2cccc(O)c2)c2cccc(C(=O)N3CCC(NCCCC(=O)O)CC3)c2)C[C@H]1C" , give the reported Seiz..
**Result** 0

###

assaySystem: human mu opioid receptor (Homo sapiens, UniProt P35372)
Sequence (P35372 whole entry): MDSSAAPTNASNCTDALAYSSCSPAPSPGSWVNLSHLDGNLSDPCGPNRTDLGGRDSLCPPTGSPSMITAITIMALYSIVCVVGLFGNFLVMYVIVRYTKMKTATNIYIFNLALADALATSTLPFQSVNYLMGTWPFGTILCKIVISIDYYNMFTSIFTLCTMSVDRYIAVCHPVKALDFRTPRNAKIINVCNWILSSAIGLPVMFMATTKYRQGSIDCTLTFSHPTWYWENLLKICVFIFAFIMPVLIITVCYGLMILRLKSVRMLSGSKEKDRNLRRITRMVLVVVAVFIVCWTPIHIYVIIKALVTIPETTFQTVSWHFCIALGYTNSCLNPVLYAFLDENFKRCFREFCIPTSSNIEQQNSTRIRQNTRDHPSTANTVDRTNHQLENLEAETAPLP
pKi: −log10 of the molar value.
Please mark 1 if the recorded pKi is equal to or greater than 9, and 0 if it falls below.

The following molecules have reported results that may help.
molecule: C[C@@H]1CN(C(c2cccc(O)c2)c2cccc(C(=O)N3CCCN(CCCCCCC(=O)O)CC3)c2)[C@@H](C)CN1Cc1cccc(F)c1 (stereo partly drawn)
assaySystem: human mu opioid receptor (Homo sapiens, UniProt P35372)
groupLabel: 0
//
molecule: CCOC(=O)CN1CCN(C(=O)c2cccc([C@H](c3cccc(O)c3)N3C[C@@H](C)N(Cc4cccc(F)c4)C[C@@H]3C)c2)CC1
assaySystem: human mu opioid receptor (Homo sapiens, UniProt P35372)
groupLabel: 0
//
molecule: C=CCN1C[C@H](C)N([C@@H](c2cccc(O)c2)c2cccc(C(=O)N3CCC[C@H]3C(=O)OC)c2)C[C@H]1C
assaySystem: human mu opioid receptor (Homo sapiens, UniProt P35372)
groupLabel: 1

Now for another entry.
**Query** Tell me whether pKi is at least 9 here: "C=CCN1C[C@H](C)N([C@@H](c2cccc(O)c2)c2cccc(C(=O)N3CCC(NCc4ccc(C(=O)O)cc4)CC3)c2)C[C@H]1C"
**Result** 0
